# STUDY_TARGET: SARM1 TIR domain (Homo sapiens, UniProt Q6SZW1)
# ASSAY_EXPLANATION: Continuous fluorescent ENAD hydrolysis assay, SARM1 TIR domain in lysate
# Format: biochemical
MEASUREMENT_TYPE: Ki (µM)
Give bare numbers, in µM.

Give recorded Ki with SARM1 TIR domain (Homo sapiens, UniProt Q6SZW1) for the following molecule: NC(=O)c1cnccc1Cl [4–CN, 4–chloronicotinamide]
700

----------
# STUDY_TARGET: SARM1 TIR domain (Homo sapiens)
# Sequence (Q6SZW1 561-724): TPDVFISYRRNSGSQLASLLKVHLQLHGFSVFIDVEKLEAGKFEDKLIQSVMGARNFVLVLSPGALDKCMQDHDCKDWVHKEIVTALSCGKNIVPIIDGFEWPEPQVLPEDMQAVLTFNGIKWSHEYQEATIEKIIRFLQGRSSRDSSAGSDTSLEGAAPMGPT
# ASSAY_EXPLANATION: Continuous fluorescent ENAD hydrolysis assay, SARM1 TIR domain in lysate
# Assay type: biochemical
# CONDITION_DETAILS: 300 nM SARM1, ENAD 0 – 400 μM varied
MEASUREMENT_TYPE: pKi
One number for each entry, as −log10 of the molar value.

Value lookup for pKi; key = Nc1ncnc2c1ncn2[C@@H]1O[C@H](COP(=O)(O)OP(=O)(O)OC[C@H]2OC(O)[C@H](O)[C@@H]2O)[C@@H](O)[C@H]1O (stereo partly shown)
4.05

Numbers sourced from paper PMC7085114.
